Target: T1, recombinant purified FRα (ECL assay calibrator) (human, UniProt P15328 25-234)
T1 construct: Calibrator of the ECL sandwich assays; also called FRα calibrator; FRα standard
T1 sequence (P15328 25-234 limits assumed): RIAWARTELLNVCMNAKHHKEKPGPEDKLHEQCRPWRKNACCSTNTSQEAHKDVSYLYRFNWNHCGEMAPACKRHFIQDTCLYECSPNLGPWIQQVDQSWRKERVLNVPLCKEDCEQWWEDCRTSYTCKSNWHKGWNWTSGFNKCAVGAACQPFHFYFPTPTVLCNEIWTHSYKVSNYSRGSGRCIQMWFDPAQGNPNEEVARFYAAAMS
Assay: ECL sandwich on FRα, signal to background; capture 6A2.G7; binder = detection Ab
measurementKind: Average of S/B

[[record]]
binder = "Monoclonal antibody 1C6.E12.G8 (antibody, mouse IgG1, V domains shown, Murine IgG1 kappa from hybridoma; also called ATCC PTA-123091) VH: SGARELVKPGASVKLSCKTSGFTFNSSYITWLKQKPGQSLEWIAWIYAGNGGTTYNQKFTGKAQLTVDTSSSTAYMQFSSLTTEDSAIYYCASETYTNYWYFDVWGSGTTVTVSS VL: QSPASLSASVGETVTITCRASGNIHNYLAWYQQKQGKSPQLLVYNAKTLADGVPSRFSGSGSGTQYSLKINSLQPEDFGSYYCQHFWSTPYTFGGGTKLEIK"
endpointresult = 19

